tgt: RBDSARS-CoV-2 (SARS-CoV-2 S protein residues 319-539, C-terminal His-tag) (SARS-CoV-2, UniProt P0DTC2 319-539)
run_description: ELISA
pIC50: −log10 of the molar value.
test_readout: pIC50

Give a short answer stating reported pIC50 for 5p-82 (VHH) VHH: HVQLVESGGGLVQAGESLRLSCVDSKRTGSRWPMGWFRQAPGKEREFVASISWTGSRTYYADSVKGRFTISRDNAENTVFLQMNSLKPEDTAVYYCAAAHARVYGANWSSSNRNDYDAWGQGTQVTVSS . 7.00 to 8.00

Give a short answer stating reported pIC50 for 5p-162 (VHH) VHH: DVQLVESGGGFVQAGGSLRLSCADSGLTRSVWPMGWFRQAPGKEREFVAGIAWSGERQSYADFVKGRFTVSRDNARNTVYLQMNSLKPEDTAVYYCAAPTSGVFGRTYAPTATSSYDSWGQGTQVTVSS . 7.00 to 8.00

Give a short answer stating reported pIC50 for R37 (VHH) VHH: QVQLVESGGGLVQTGGSLRLSCAASGRTFSNYVMGWFRQAPGKEREFVSSIEWNSENTFYANSVKGRFTISRDNAKNTVYLQMNSLKAEDTAVYYCAADRGSSYYYTRASEYTYWGQGTQVTVSS . > 8.00

Give a short answer stating reported pIC50 for 5p-118 (VHH, class II(B) psNb) VHH: QVQLVESGGGLVQAGESLRLSCAASKPTFRNFAAGWFRQTPGKDREFVAVIEYDGDSAYYADSVKGRFTISRDNAKNTVYLQMNRLKPGDTAVYICAIGGNHYDPSKYYTADEYDYWGQGTQVTVSS . > 8.00

Give a short answer stating reported pIC50 for 5p-18 (VHH) VHH: EVQLVESGGGLVQAGGSLRLSCEASGRTFSSYAMGWFRQAPGKEREFVAAISQGGSTDYGDSTKGRFTISRDNAKNTVYLQMNSLKPEDTAVYYCAADQTPLRYAYSTRSQDYDYWGQGTQVTVSS . > 8.00

New cases:
Give a short answer stating reported pIC50 for 5p-23 (VHH) VHH: HVQLVESGGGLVQAGDSLRLSCAASGGTFSSYAMGWFRQVPGKEREFVAAISRGGSTDYADSVKGRFTISRDNAKNTVNLQMNSLKPEDTAVYYCAADRSPLFWGMSQSHGEYDYWGQGTQVTVSS . > 8.00

Give a short answer stating reported pIC50 for 5p-63 (VHH) VHH: DVQLVESGGGLVQAGGSLRLSCAASGRSFSTYAMGWFRQAPGKEREFVAGVARSASTTYYTDSVKGRFTISRDNAKNEVYLQMNSLKPEDTAVYYCAARSVIQDTVVPGNPFHYEYWGQGTQVTVSS . > 8.00

Give a short answer stating reported pIC50 for 4P-86 (VHH) VHH: DVQLVESGGGLVQAGGSLRLSCAVSGRTVSTYGMAWFRQAPGKEREFVATITRSEGTTFYADSVKGRFTISRDNAKNTVYLQMNSLKIEDTAVYYCAVRRDSSWGYSRDSFEYDDWGQGTQVTVSS . > 8.00
